- Test system: A549
- protocol.notes: NCI tumour cell line growth inhibition, 48 h
Active and inactive are the calls of the source. Rule as the data show it: active = GI50 up to about 1.1 µM and inactive = higher.
Classes used: active, inactive

molecule: CCCCCC(/C=N/NC(N)=S)C(O)(C(F)(F)F)C(F)(F)F (centres undefined)
qualitative.label: inactive
//
molecule: NC12CC3C4CC5(N)CC3C(C1)C(C5)C4C2
qualitative.label: inactive
//
molecule: O=C(NC1CCCCC1)c1nn[nH]c1Cl
qualitative.label: inactive
//
molecule: C[C@H]1O[C@@H](O[C@H]2[C@@H](O)C[C@H](O[C@H]3[C@@H](O)C[C@H](O[C@H]4CC[C@@]5(C)[C@H](CC[C@@H]6[C@@H]5CC[C@]5(C)[C@@H](C7=CC(=O)OC7)CC[C@]65O)C4)O[C@@H]3C)O[C@@H]2C)C[C@H](O)[C@@H]1O
qualitative.label: active
//
molecule: Cc1cc(NS(=O)(=O)c2ccc(Nc3c4ccccc4nc4c(C(=O)Nc5ccc(S(=O)(=O)N=C(N)N)cc5)cccc34)cc2)no1
qualitative.label: inactive
//
molecule: O=c1cnn(C/C=C/CBr)c(=O)[nH]1
qualitative.label: inactive
//
molecule: COc1cc(/C=C(\C#N)C(N)=C(C#N)C#N)cc(O)c1O
qualitative.label: inactive
//
molecule: CCn1c2ccc(C(=O)CCCN(C)C)cc2c2cc(C(=O)CCCN(C)C)ccc21
qualitative.label: active
//
molecule: COC(=O)/C(=N\Nc1nnc(C)n1N)C(C#N)c1ccccc1 (centres undefined)
qualitative.label: inactive
